Reference source for all entries: PubChem BioAssay (NCI)

Test system: SNB-75 CNS
Experimental details: NCI-60 one-dose screen, 48 h (100 = growth as untreated, 0 = no growth, -100 = all killed)
Test conditions: 10 µM unless noted
The panel holds about 83,000 compounds, 20% with a hit somewhere; the sample as a whole holds those more often.
Measured property: growth (%)
Give the quantity in %, number only.

IN: Lab note: need growth with SNB-75 CNS for entry CCOC(=O)CC(C)=N , please look it up.
OUT: 84

IN: What do we get for CS(=O)(CCCCN=C=S)=NC(=O)c1c(F)c(F)c(F)c(F)c1F (stereo unspecified) ?
OUT: 97.4

IN: Check CCOC(=O)c1c2c(n3ccc(NC(=O)CCN4CCCCC4)cc13)C(=O)c1ncccc1C2=O too.
OUT: 23.9

IN: Next record, please: Cc1ccc(Nc2nc(N)nc(Nc3ccc4ccccc4c3)n2)cc1
OUT: 25

IN: Follow-up item: O=C(/C=C/c1ccc(Cl)cc1)/C=C/c1cc2ccccc2[nH]c1=O
OUT: 68.8

IN: // next record C=C1CCC2C3(C)COC(c4cccc(Cl)c4)OC3CCC2(C)C1/C=C/C1=CCOC1=O (stereo unspecified)
OUT: 86.5

====

For each of the compounds below, state its growth.
System: RPMI-8226 leukemia
Experimental details: NCI-60 one-dose screen, 48 h (100 = growth as untreated, 0 = no growth, -100 = all killed)
Test conditions: 10 µM unless noted
The panel holds about 83,000 compounds, 20% with a hit somewhere; the sample as a whole holds those more often.
Please give a number only; it is taken to be in %.

IN: Entry CCOC(=O)c1c2c(n3ccc(NC(=O)CCN4CCCCC4)cc13)C(=O)c1ncccc1C2=O , system RPMI-8226 leukemia: what growth was measured?
OUT: -6.64

IN: Could you do the same for O=C([C@@H](COCc1ccccc1)N1C(=O)[C@@H](N2C(=O)OC[C@@H]2c2ccccc2)[C@H]1/C=C/c1ccccc1)N1CCC(CCN2CCCCC2)CC1 , please?
OUT: 65.2

IN: Also need CCCC(=O)Oc1ccc(/C(=C(/CC)Cc2ccccc2)c2ccc(OCCN3CCCC3)cc2)cc1 , thanks.
OUT: 33.3

IN: Now consider CN(CC(=O)N(Cc1ccc(C2CCCCC2)cc1)c1ccc(C(=O)NO)cc1)S(=O)(=O)c1c(F)c(F)c(F)c(F)c1F .
OUT: 62.8

IN: And the next one, O=C(/C=C/c1ccc(Cl)cc1)c1ccc(O)c(CN2CCN(c3cc4c(cc3F)c(=O)c(C(=O)O)cn4C3CC3)CC2)c1 ?
OUT: 16.5

IN: // query: N#Cc1c(N)nc(N)nc1Nc1ccc(Br)cc1
OUT: 97

IN: Again, but for O=C(O)c1cn(C2CC2)c2cc(N3CCN(Cc4nc5c(cnn5-c5ccc([N+](=O)[O-])cc5)c(=O)[nH]4)CC3)c(F)cc2c1=O
OUT: 98

IN: Please give the result for C=CC[N+]1(CCO)CCN=C1CCCCCCCCCCCCC (centres undefined) too.
OUT: -39.5

IN: Thanks! And O=[N+]([O-])c1cccc(-c2nc3sccn3c2-c2ccnc(NCCCNS(=O)(=O)c3cccc(F)c3)n2)c1 ?
OUT: -32.5

IN: Then what about the compound CN1CCCCC1CCN1c2ccccc2Sc2ccc(Cl)cc21 (centres undefined) ?
OUT: 56.5

IN: Now consider CCN(CC)C12CCCCC1(C)C(C#N)(C#N)C(C#N)=C(N)O2 (centres undefined) .
OUT: 125

IN: And Cc1sc2nc3[nH]/c(=C\c4ccc(Cl)cc4)c(=O)n3c(=O)c2c1C ?
OUT: 97.1

IN: Then what about the compound Cc1nn(-c2ccccc2)c2nc(C)n(-c3ccc(Br)cc3)c(=O)c12 ?
OUT: 9.81

IN: Thanks! And O=C(O)c1ccc(=O)[nH]n1 ?
OUT: 107

IN: What do you get for Nc1c(C(=O)Nc2cccc3c2OCCO3)sc2nc3c(cc12)C(=O)CCC3 ?
OUT: 33.7

IN: Also N#Cc1ccc(NC(=O)Nc2ccc(Cc3ccc(NC(=O)Nc4ccc(C#N)cc4)cc3)cc2)cc1 ?
OUT: -2.1

IN: Okay, and COc1ccc(S(=O)(=O)NCCNc2nccc(-c3c(-c4cccc(N)c4)nc4sccn34)n2)cc1 ?
OUT: 96

IN: What do you have for COc1ccc(N(Cc2cc(OC)c(OC)c(OC)c2)C2OC(=O)c3ccccc32)cc1 (centres undefined) ?
OUT: 10.6

IN: Next up: O=C1CC(c2nc3ccccc3s2)CN1C1CCCCC1 (centres undefined)
OUT: 98.4
